method_description: in vitro
Assay type: cell-based
run_conditions: human, mt-4 cells
readout_type: CC50
Dear colleague, please send the value followed by its unit.

compound: CC(=O)c1ccccc1NC(C)c1c(Cl)cccc1Cl (racemic)
CC50: 5 µg/mL

Request: Report CC50, nothing else, for this compound: NC(=O)C(Nc1cccc2c1C(=O)CO2)c1c(Cl)cccc1Cl (racemic)
Result: 169 µg/mL

Request: Item CC(Nc1ccccc1[N+](=O)[O-])c1c(Cl)cccc1Cl (centres unmarked) : provide CC50
Result: 0.13 µg/mL

Request: Write down CC50 measured for item CCC(Nc1ccccc1C(C)=O)c1c(Cl)cccc1Cl (centres unmarked)
Result: 6.9 µg/mL

Request: Read off the recorded CC50 for O=[N+]([O-])c1ccccc1NC(CO)c1c(Cl)cccc1Cl (racemic)
Result: 4.3 µg/mL

====

Reported EC50 values for the following compounds.
Tested on: HIV-1
method_description: in-vitro anti-HIV assay: inhibition of the HIV-induced cytopathic effect in HIV-infected MT-4 cells (MTT)
Assay type: cell-based, Human Immunodeficiency Virus
run_conditions: Human immunodeficiency virus 1, MT4; dose achieving 50% protection in HIV-infected MT-4 cells; MTT, 540 nm; read-out: ED50 (50% effective dose)
Write it as a number; the unit µg/mL goes unstated.

Use the examples below as a reference point.
compound: CC(=O)c1ccccc1NC(C)c1c(Cl)cccc1Cl (racemic)
EC50 [µg/mL]: 0.022
//
compound: CC(=O)c1ccccc1NC(c1c(Cl)cccc1Cl)C1CC1 (racemic)
EC50 [µg/mL]: 0.15

Request: Report EC50 from HIV-1 testing of NC(=O)C(Nc1cccc2c1C(=O)CO2)c1c(Cl)cccc1Cl (racemic)
Result: 0.12

Request: # assay system HIV-1: give EC50 of NC(=O)C(Nc1cc(Cl)cc2c1OCC2)c1c(Cl)cccc1Cl (stereo not drawn)
Result: 0.079

Request: Please tell me the measured EC50 for O=[N+]([O-])c1ccccc1NC(CO)c1c(Cl)cccc1Cl (racemic) ; system: HIV-1.
Result: 0.18

Request: Provide measured EC50 on HIV-1 for CCC(Nc1ccccc1C(C)=O)c1c(Cl)cccc1Cl (stereo not drawn) please.
Result: 0.52

Request: Lab note: HIV-1 assay, enter EC50 for CC(Nc1ccccc1[N+](=O)[O-])c1c(Cl)cccc1Cl (stereo not drawn) here
Result: 0.021

Request: Specify the recorded EC50 for Cc1cc2c(c(NC(C(N)=O)c3c(Cl)cccc3Cl)c1)C(=O)CC2 (racemic) , system: HIV-1.
Result: 0.0038

Request: Give EC50 for CC(=O)c1cc2c(cc1NC(C(N)=O)c1c(Cl)cccc1Cl)CCC2 (stereo not drawn) tested on HIV-1.
Result: 0.2

====

method_description: in vitro
Assay type: cell-based
run_conditions: human, mt-4 cells
Catalogue of molecules with associated CC50
Please answer in the form of a number followed by its unit of measurement.

molecule: Cc1cc2c(c(NC(C(N)=O)c3c(Cl)cccc3Cl)c1)C(=O)CC2 (racemic)
readout_type: CC50
observed_result: 207 µg/mL

molecule: CC(=O)c1ccccc1NC(c1c(Cl)cccc1Cl)C1CC1 (racemic)
readout_type: CC50
observed_result: 4.1 µg/mL

molecule: NC(=O)C(Nc1cccc2ccc[n+]([O-])c12)c1c(Cl)cccc1Cl (centres unmarked)
readout_type: CC50
observed_result: 53 µg/mL

molecule: CC(=O)c1cc2c(cc1NC(C(N)=O)c1c(Cl)cccc1Cl)CCC2 (centres unmarked)
readout_type: CC50
observed_result: 10 µg/mL

Proceeding to the next molecule to report its CC50.
Request: Please supply the value of reported CC50 for the item NC(=O)C(Nc1cc(Cl)cc2c1OCC2)c1c(Cl)cccc1Cl (centres unmarked)
Result: 0.87 µg/mL

Every entry's value here was drawn from patent US5407961A.
